# Lookup of reported melting point keyed by entry

COc1ccc(N2C(=O)N(c3ccccc3)c3nc(Nc4ccccc4)ncc3C2C(C)C)cc1 (stereo unspecified) : 229 to 235 °C

Value of melting point reported for the compound "Cc1cc(C#N)cc(C)c1Nc1nc(Nc2ccc(C#N)cc2)nc(Cl)c1Br" is 259 to 260 °C

Entry "CN(C)C(=O)N1Cc2c(-c3noc(C4CC4)n3)ncn2-c2ccc(Cl)cc21" , melting point reported as 254 to 256 °C

For this compound ( Cc1ccc(C(=O)NC(Cc2cccc(Br)c2)C(=O)O)cc1 (stereo unspecified) ), measured melting point is 196 to 197 °C

For reference, reported melting point for "CCSc1nc2c(C)sc(C(=O)OC)c2n1Cc1ccc(-c2ccccc2C#N)cc1" stands at 149 to 151 °C

melting point reading for "COc1ccccc1C=CC=CC(=O)c1cc(OC)c(OC)c(OC)c1" : 111 °C

compound CCC(=O)c1cc(F)c(OCC2CC2(Cl)Cl)cc1F (stereo unspecified) , melting point observed: 89 to 91 °C

----------
property.label: melting point

Sample answers from the record:
COC(=O)N[C@H](C(=O)NN(Cc1ccc(-c2cncs2)cc1)C[C@H](O)[C@H](Cc1ccccc1)NC(=O)[C@@H](NC(=O)OC)C(C)(C)C)C(C)C : 134 to 135 °C
Cc1nnc2n1-c1sc(C(=O)O)cc1C(c1ccccc1Cl)=NC2 : 302 °C
C=CCN(CC=C)Cc1noc(-c2ncn3c2[C@@H]2CCCN2C(=O)c2c(Cl)cccc2-3)n1 : 175 to 177 °C
CC1(C)CC(N(CCO)c2c([O-])[c+](N(CCO)C3CC(C)(C)NC(C)(C)C3)[c+]2[O-])CC(C)(C)N1 : 309 to 311 °C
Nc1cc(N)cc(C(c2c(O)c3c(oc2=O)CCCCCC3)C2CC2)c1 (stereo not drawn) : 87 °C

GET /value?item= "CS(=O)(=O)c1ccc(-c2cc(C(=O)CCCO[N+](=O)[O-])nn2-c2ccc(Br)cc2)cc1" &field=melting point returns 150 to 152 °C

melting point reading for "Cc1c(C(=O)O)cccc1C(=O)c1ccc(Cl)cc1" : 205 °C

Value of melting point reported for the compound "CCOC(=O)c1c(CN(CC)CC)nc2ccc(Cl)cc2c1-c1ccc(Cl)cc1" is 132 to 133 °C

----------
melting point values, listed per item

Some entries whose results are on file:
Ic1ccc(SSc2ccc(I)c3ccccc23)c2ccccc12 : 129 to 131 °C
CN1N=C(c2ccc(F)cc2)c2ccc(C(F)(F)F)cc2CS1(=O)=O : 160 to 162 °C
CCOc1cc2c(cc1S(=O)(=O)NC(=S)NC)C(CNC(=O)c1cc(Cl)ccc1OC)CCO2 (centres undefined) : 202 °C
O=C(O)C1CCc2[nH]c3cc(Cl)c(Cl)cc3c2C1 (centres undefined) : 243 to 244 °C
CCOC(=O)c1cn(CC)c2nc(N3CCN(C(C)=O)CC3)ncc2c1=O : 208 to 210 °C

Field melting point (entry "O=C(O)[C@H]1CN(C(=O)OCc2ccccc2)CCN1c1cc(Cl)ccc1[N+](=O)[O-]" ) reads 145 to 155 °C

melting point in this record for Cc1cccc(C(=O)NC(NC(=NC#N)Nc2ccc(Cl)nc2)C(C)(Cl)Cl)c1 (centres undefined) : 145 to 146 °C

Looking up "COC(=O)c1cc2ccnc(NS(=O)(=O)c3cccs3)c2[nH]1" , I found its melting point recorded as 159 to 160 °C

Reported melting point ( CC(C)(C)C(NC(=O)c1cccc(Br)c1)Nc1c(Nc2cccnc2)c(=O)c1=O (centres undefined) ) = 244 to 245 °C
